Below is a list of entries, each paired with its recorded pIC50 value.
- systemName: human OTR (Homo sapiens, UniProt P30559)
- assayProcedure: Inhibition activity on human OTR (Fluo-4 calcium assay, HEK293/human OTR stably transfected cells)
- experimentalSetup: oxytocin 3 nM
The meaning of pIC50 here: minus log10 of the concentration in molar units.

INPUT: Data request, read-out pIC50, for COCc1nnc(N2CC(N3CCOc4cc(F)ccc43)C2)n1-c1ccc(OC)nc1 [Example 24]
OUTPUT: 7.00

INPUT: I have this compound here, COCc1nnc(N2CC(C3CCOc4cc(F)ccc43)C2)n1-c1ccc(OC)nc1 (centres unmarked) [Example 21] , and I need its recorded pIC50.
OUTPUT: 7.60

INPUT: Quick check: pIC50 of COCc1nnc(N2CC(c3csc4cc(F)ccc34)C2)n1-c1ccc(OC)nc1 [Example 9] ?
OUTPUT: 7.40

INPUT: Look up pIC50 for this compound: CCOCc1nnc(N2CC(N3CCCc4cc(F)ccc43)C2)n1-c1ccc(OC)nc1 [Example 26]
OUTPUT: 8.15

INPUT: Requested read-out: pIC50. Entry: COCc1nnc(N2CC(c3coc4cc(F)ccc34)C2)n1-c1ccc(OC)nc1 [Example 11]
OUTPUT: 6.66
